# experimental-system: hα4 and β1 integrins (Homo sapiens, UniProt P05556+P13612)
# Sequence (P13612 34-1032): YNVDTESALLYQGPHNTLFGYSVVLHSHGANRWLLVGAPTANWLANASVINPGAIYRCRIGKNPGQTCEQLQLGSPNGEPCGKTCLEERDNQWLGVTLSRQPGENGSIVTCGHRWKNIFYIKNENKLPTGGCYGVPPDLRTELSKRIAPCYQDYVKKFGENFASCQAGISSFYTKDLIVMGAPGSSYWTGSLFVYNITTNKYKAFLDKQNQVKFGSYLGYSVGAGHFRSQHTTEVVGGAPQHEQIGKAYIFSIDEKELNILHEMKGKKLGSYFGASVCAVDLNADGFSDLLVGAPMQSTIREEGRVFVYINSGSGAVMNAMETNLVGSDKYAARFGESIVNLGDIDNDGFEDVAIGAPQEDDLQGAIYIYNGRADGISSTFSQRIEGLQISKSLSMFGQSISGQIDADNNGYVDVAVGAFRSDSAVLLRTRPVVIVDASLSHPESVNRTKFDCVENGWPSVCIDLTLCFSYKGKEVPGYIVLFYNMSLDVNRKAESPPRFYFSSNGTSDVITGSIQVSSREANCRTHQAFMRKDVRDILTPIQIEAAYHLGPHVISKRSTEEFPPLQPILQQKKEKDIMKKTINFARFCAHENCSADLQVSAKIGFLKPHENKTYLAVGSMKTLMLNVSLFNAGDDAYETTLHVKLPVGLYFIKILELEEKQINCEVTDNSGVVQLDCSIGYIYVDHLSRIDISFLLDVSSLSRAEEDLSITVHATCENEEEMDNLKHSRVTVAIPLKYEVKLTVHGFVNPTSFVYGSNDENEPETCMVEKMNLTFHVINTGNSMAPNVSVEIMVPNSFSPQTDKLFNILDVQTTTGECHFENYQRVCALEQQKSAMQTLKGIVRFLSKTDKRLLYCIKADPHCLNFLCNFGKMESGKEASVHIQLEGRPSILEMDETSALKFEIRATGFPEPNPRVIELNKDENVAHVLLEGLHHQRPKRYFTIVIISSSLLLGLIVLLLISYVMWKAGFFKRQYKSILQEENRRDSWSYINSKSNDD
# Sequence (P05556 21-798): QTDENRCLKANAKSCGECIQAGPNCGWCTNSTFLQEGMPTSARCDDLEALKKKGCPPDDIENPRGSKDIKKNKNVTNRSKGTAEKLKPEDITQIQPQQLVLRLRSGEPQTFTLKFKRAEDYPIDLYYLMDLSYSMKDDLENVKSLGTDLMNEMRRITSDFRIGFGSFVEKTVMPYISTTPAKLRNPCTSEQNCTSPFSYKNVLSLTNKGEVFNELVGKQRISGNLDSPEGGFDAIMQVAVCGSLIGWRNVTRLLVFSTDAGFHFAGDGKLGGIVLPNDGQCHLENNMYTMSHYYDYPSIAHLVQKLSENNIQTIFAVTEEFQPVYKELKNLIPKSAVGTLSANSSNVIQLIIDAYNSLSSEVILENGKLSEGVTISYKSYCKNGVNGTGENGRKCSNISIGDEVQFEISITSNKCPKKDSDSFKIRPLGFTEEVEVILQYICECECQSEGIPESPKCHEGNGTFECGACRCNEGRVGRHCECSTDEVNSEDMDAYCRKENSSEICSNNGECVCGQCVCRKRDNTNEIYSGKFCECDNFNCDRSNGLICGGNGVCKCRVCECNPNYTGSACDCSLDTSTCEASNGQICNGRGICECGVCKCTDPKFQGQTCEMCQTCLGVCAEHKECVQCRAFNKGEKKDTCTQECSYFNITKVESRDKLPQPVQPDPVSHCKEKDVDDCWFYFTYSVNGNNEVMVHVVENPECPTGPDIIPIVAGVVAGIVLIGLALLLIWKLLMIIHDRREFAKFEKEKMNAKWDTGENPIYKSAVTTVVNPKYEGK
# assay-comment: In vitro inhibition of binding between CHO cells expressing hα4 and β1 integrins and Eu3+-hVCAM-1 D1D7-IgG
# setup-conditions: CHO cells expressing hα4 and β1 integrins; Eu3+-hVCAM-1 D1D7-IgG ligand; without HSA
measure-name: Ki (nM)

{"molecule": "COC1CN([C@H]2C[C@@H](CO[C@H]3CC[C@H](C(=O)O)CC3)N(C(=O)Cc3cc(Cl)c(NC(=O)c4coc5ccccc45)cc3F)C2)C1 (relative stereo)", "Ki (nM)": 1.4}
{"molecule": "Cn1cc(C(=O)Nc2cc(F)c(CC(=O)N3C[C@@H](N4C[C@H]5COC[C@H]5C4)C[C@H]3CO[C@H]3CC[C@H](C(=O)O)CC3)cc2Cl)c2ccccc21", "Ki (nM)": 2.8}
{"molecule": "CO[C@H]1CN([C@H]2C[C@@H](CO[C@H]3CC[C@H](C(=O)O)CC3)N(C(=O)Cc3cc(Cl)c(NC(=O)c4coc5ccccc45)cc3Cl)C2)C[C@H]1OC", "Ki (nM)": 7.9}

1. Cn1cc(C(=O)Nc2cc(F)c(CC(=O)N3C[C@@H](N4CC[C@H](F)C4)C[C@H]3CO[C@H]3CC[C@H](C(=O)O)CC3)cc2Cl)c2ccccc21
2. COC1(C)CN([C@H]2C[C@@H](CO[C@H]3CC[C@H](C(=O)O)CC3)N(C(=O)Cc3cc(Cl)c(NC(=O)c4cn(C)c5ccccc45)cc3F)C2)C1
stdin: In terms of reported Ki, does 1 or 2 have the smaller number? Kindly state the label of the option you pick.
stdout: 1

====

# experimental-system: hα4 and β1 integrins (Homo sapiens, UniProt P05556+P13612)
# assay-comment: In vitro inhibition of binding between CHO cells expressing hα4 and β1 integrins and Eu3+-hVCAM-1 D1D7-IgG
# setup-conditions: in the presence of 3% human serum albumin (HSA final concentration 3%)
measure-name: IC50 (µM)

{"compound": "COC1(C)CN([C@H]2C[C@@H](CO[C@H]3CC[C@H](C(=O)O)CC3)N(C(=O)Cc3cc(Cl)c(NC(=O)c4cn(C)c5ccccc45)cc3F)C2)C1 [Example 16]", "experimental-system": "hα4 and β1 integrins (Homo sapiens, UniProt P05556+P13612)", "unit-symbol": "µM", "IC50": 0.041}

1. CN1CCN([C@H]2C[C@@H](CO[C@H]3CC[C@H](C(=O)O)CC3)N(C(=O)Cc3cc(Cl)c(NC(=O)c4coc5ccccc45)cc3Cl)C2)CC1=O [Example 155]
2. Cn1cc(C(=O)Nc2cc(Cl)c(CC(=O)N3C[C@@H](N4CCN(CC(F)F)CC4)C[C@H]3CO[C@H]3CC[C@H](C(=O)O)CC3)cc2Cl)c2ccccc21 [Example 120]
stdin: In terms of reported IC50, does 1 or 2 have the smaller number? Kindly state the label of the option you pick.
stdout: 1
(1: 0.01 µM, 2: 0.016 µM)

====

# experimental-system: hα4 and β1 integrins (Homo sapiens, UniProt P05556+P13612)
# assay-comment: In vitro inhibition of binding between CHO cells expressing hα4 and β1 integrins and Eu3+-hVCAM-1 D1D7-IgG
# setup-conditions: in the presence of 3% human serum albumin (HSA final concentration 3%)
measure-name: IC50 (nM)

{"compound": "Cn1cc(C(=O)Nc2cc(Cl)c(CC(=O)N3C[C@@H](N4CC5CC4CO5)C[C@H]3CO[C@H]3CC[C@H](C(=O)O)CC3)cc2Cl)c2ccccc21 (some centres unmarked)", "experimental-system": "hα4 and β1 integrins (Homo sapiens, UniProt P05556+P13612)", "IC50 (nM)": 49}
{"compound": "CO[C@H]1CN([C@H]2C[C@@H](CO[C@H]3CC[C@H](C(=O)O)CC3)N(C(=O)Cc3cc(Cl)c(NC(=O)c4csc5ccccc45)cc3Cl)C2)C[C@H]1OC", "experimental-system": "hα4 and β1 integrins (Homo sapiens, UniProt P05556+P13612)", "IC50 (nM)": 9.3}
{"compound": "O=C(Nc1cc(F)c(CC(=O)N2C[C@@H](N3CCC(Oc4ccccc4)CC3)C[C@H]2CO[C@H]2CC[C@H](C(=O)O)CC2)cc1Cl)c1csc2ccccc12", "experimental-system": "hα4 and β1 integrins (Homo sapiens, UniProt P05556+P13612)", "IC50 (nM)": 33}
{"compound": "CN(C)C1CN([C@H]2C[C@@H](CO[C@H]3CC[C@H](C(=O)O)CC3)N(C(=O)Cc3cc(Cl)c(NC(=O)c4csc5ccccc45)cc3Cl)C2)C1", "experimental-system": "hα4 and β1 integrins (Homo sapiens, UniProt P05556+P13612)", "IC50 (nM)": 14}
{"compound": "Cn1cc(C(=O)Nc2cc(F)c(CC(=O)N3C[C@@H](N4CCN(CC(F)(F)F)CC4)C[C@H]3CO[C@H]3CC[C@H](C(=O)O)CC3)cc2Cl)c2ccccc21", "experimental-system": "hα4 and β1 integrins (Homo sapiens, UniProt P05556+P13612)", "IC50 (nM)": 17}
{"compound": "Cn1cc(C(=O)Nc2cc(F)c(CC(=O)N3C[C@@H](N4CCN(CC(F)F)CC4)C[C@H]3CO[C@H]3CC[C@H](C(=O)O)CC3)cc2Cl)c2ccccc21", "experimental-system": "hα4 and β1 integrins (Homo sapiens, UniProt P05556+P13612)", "IC50 (nM)": 11}
{"compound": "CC1CCCN1[C@H]1C[C@@H](CO[C@H]2CC[C@H](C(=O)O)CC2)N(C(=O)Cc2cc(Cl)c(NC(=O)c3csc4ccccc34)cc2F)C1 (some centres unmarked)", "experimental-system": "hα4 and β1 integrins (Homo sapiens, UniProt P05556+P13612)", "IC50 (nM)": 9.1}
{"compound": "O=C(Nc1cc(F)c(CC(=O)N2C[C@@H](N3CC(N4CCCCC4)C3)C[C@H]2CO[C@H]2CC[C@H](C(=O)O)CC2)cc1Cl)c1csc2ccccc12", "experimental-system": "hα4 and β1 integrins (Homo sapiens, UniProt P05556+P13612)", "IC50 (nM)": 12}

I. Cn1cc(C(=O)Nc2cc(Cl)c(CC(=O)N3C[C@@H](N4CCCOCC4)C[C@H]3CO[C@H]3CC[C@H](C(=O)O)CC3)cc2Cl)c2ccccc21
II. O=C(Nc1cc(F)c(CC(=O)N2C[C@@H](N3CCCCC3)C[C@H]2CO[C@H]2CC[C@H](C(=O)O)CC2)cc1Cl)c1csc2ccccc12
III. Cn1cc(C(=O)Nc2cc(Cl)c(CC(=O)N3C[C@@H](N4CCN(CC(F)(F)F)CC4)C[C@H]3CO[C@H]3CC[C@H](C(=O)O)CC3)cc2Cl)c2ccccc21
stdin: Order the records so the highest IC50 appears first and the lowest last. Could you list the labels in the order requested?
stdout: III, I, II

====

# assay-comment: Solubility test in first and second liquid of the Japanese Pharmacopoeia
# setup-conditions: second liquid of the Japanese Pharmacopoeia (JP2), pH 6.8, aqueous buffer, Solubility, Second liquid of Japanese Pharmacopoeia (μg/mL), JP2, pH=6.8
measure-name: solubility (µg/mL)

1. CCOC1CN([C@H]2C[C@@H](CO[C@H]3CC[C@H](C(=O)O)CC3)N(C(=O)Cc3cc(Cl)c(NC(=O)c4cn(C)c5ccccc45)cc3Cl)C2)C1 [Example 20]
2. CO[C@H]1CN([C@H]2C[C@@H](CO[C@H]3CC[C@H](C(=O)O)CC3)N(C(=O)Cc3cc(Cl)c(NC(=O)c4coc5ccccc45)cc3F)C2)C[C@@H]1OC [Example 53]
stdin: In terms of reported solubility, does 1 or 2 have the smaller number? Kindly state the label of the option you pick.
stdout: 2
(2: 1000 µg/mL, 1: 1920 µg/mL)

====

# experimental-system: hα4 and β1 integrins (Homo sapiens, UniProt P05556+P13612)
# assay-comment: In vitro inhibition of binding between CHO cells expressing hα4 and β1 integrins and Eu3+-hVCAM-1 D1D7-IgG
# setup-conditions: in the presence of 3% human serum albumin (HSA final concentration 3%)
measure-name: IC50 (nM)

Worked cases, IC50 given:
{"molecule": "CO[C@H]1CN([C@H]2C[C@@H](CO[C@H]3CC[C@H](C(=O)O)CC3)N(C(=O)Cc3cc(Cl)c(NC(=O)c4coc5ccccc45)cc3F)C2)C[C@H]1OC", "experimental-system": "hα4 and β1 integrins (Homo sapiens, UniProt P05556+P13612)", "observed-value": 8.1}
{"molecule": "C[C@@H]1CC[C@@H](C)N1[C@H]1C[C@@H](CO[C@H]2CC[C@H](C(=O)O)CC2)N(C(=O)Cc2cc(Cl)c(NC(=O)c3coc4ccccc34)cc2F)C1", "experimental-system": "hα4 and β1 integrins (Homo sapiens, UniProt P05556+P13612)", "observed-value": 52}
{"molecule": "COC1CCN([C@H]2C[C@@H](CO[C@H]3CC[C@H](C(=O)O)CC3)N(C(=O)Cc3cc(Cl)c(NC(=O)c4csc5ccccc45)cc3F)C2)CC1", "experimental-system": "hα4 and β1 integrins (Homo sapiens, UniProt P05556+P13612)", "observed-value": 2.2}
{"molecule": "Cn1cc(C(=O)Nc2cc(Cl)c(CC(=O)N3C[C@@H](N4CC5CC4CN5C4CC4)C[C@H]3CO[C@H]3CC[C@H](C(=O)O)CC3)cc2Cl)c2ccccc21 (stereo partly shown)", "experimental-system": "hα4 and β1 integrins (Homo sapiens, UniProt P05556+P13612)", "observed-value": 71}
{"molecule": "CC1CN([C@H]2C[C@@H](CO[C@H]3CC[C@H](C(=O)O)CC3)N(C(=O)Cc3cc(Cl)c(NC(=O)c4cn(C)c5ccccc45)cc3Cl)C2)C1", "experimental-system": "hα4 and β1 integrins (Homo sapiens, UniProt P05556+P13612)", "observed-value": 37}
{"molecule": "O=C(Nc1ccc(CC(=O)N2C[C@@H](N3CCN(CC(F)(F)F)CC3)C[C@H]2CO[C@H]2CC[C@H](C(=O)O)CC2)cc1Cl)c1nccc2ccccc12", "experimental-system": "hα4 and β1 integrins (Homo sapiens, UniProt P05556+P13612)", "observed-value": 34}
{"molecule": "COC[C@H]1CCCN1[C@H]1C[C@@H](CO[C@H]2CC[C@H](C(=O)O)CC2)N(C(=O)Cc2cc(Cl)c(NC(=O)c3csc4ccccc34)cc2F)C1", "experimental-system": "hα4 and β1 integrins (Homo sapiens, UniProt P05556+P13612)", "observed-value": 24}
{"molecule": "COCC1CCN([C@H]2C[C@@H](CO[C@H]3CC[C@H](C(=O)O)CC3)N(C(=O)Cc3cc(Cl)c(NC(=O)c4csc5ccccc45)cc3F)C2)CC1", "experimental-system": "hα4 and β1 integrins (Homo sapiens, UniProt P05556+P13612)", "observed-value": 3.8}

P. O=C(Nc1cc(Cl)c(CC(=O)N2C[C@@H](N3CCN(C4CC4)CC3)C[C@H]2CO[C@H]2CC[C@H](C(=O)O)CC2)cc1Cl)c1csc2ccccc12
Q. O=C(Nc1cc(Cl)c(CC(=O)N2C[C@@H](n3ccnc3)C[C@H]2CO[C@H]2CC[C@H](C(=O)O)CC2)cc1Cl)c1csc2ccccc12
R. CN(C)CC1CN([C@H]2C[C@@H](CO[C@H]3CC[C@H](C(=O)O)CC3)N(C(=O)Cc3cc(Cl)c(NC(=O)c4cn(C)c5ccccc45)cc3F)C2)C1
S. Cn1cc(C(=O)Nc2cc(F)c(CC(=O)N3C[C@@H](N4CCCO4)C[C@H]3CO[C@H]3CC[C@H](C(=O)O)CC3)cc2Cl)c2ccccc21
T. O=C(Nc1cc(F)c(CC(=O)N2C[C@@H](N3C[C@@H]4CS(=O)(=O)C[C@@H]4C3)C[C@H]2CO[C@H]2CC[C@H](C(=O)O)CC2)cc1Cl)c1coc2ccccc12
stdin: Order the records so the highest IC50 appears first and the lowest last. Could you list the labels in the order requested?
stdout: S, Q, R, P, T

1. O=C(Nc1cc(F)c(CC(=O)N2C[C@@H](N3C[C@@H]4OCO[C@@H]4C3)C[C@H]2CO[C@H]2CC[C@H](C(=O)O)CC2)cc1Cl)c1coc2ccccc12
2. CCC1(OC)CN([C@H]2C[C@@H](CO[C@H]3CC[C@H](C(=O)O)CC3)N(C(=O)Cc3cc(Cl)c(NC(=O)c4csc5ccccc45)cc3F)C2)C1
stdin: In terms of reported IC50, does 1 or 2 have the smaller number? Kindly state the label of the option you pick.
stdout: 1
(1: 8.8 nM, 2: 48 nM)

P. Cn1cc(C(=O)Nc2cc(F)c(CC(=O)N3C[C@@H](N4CCN(c5ccncc5)CC4)C[C@H]3CO[C@H]3CC[C@H](C(=O)O)CC3)cc2Cl)c2ccccc21
Q. O=C(Nc1ccc(CC(=O)N2C[C@@H](N3CCN(CC(F)(F)F)CC3)C[C@H]2CO[C@H]2CC[C@H](C(=O)O)CC2)cc1Cl)c1csc2ccccc12
stdin: In terms of reported IC50, does P or Q have the smaller number? Kindly state the label of the option you pick.
stdout: Q
